Recorded values, source paper PMC11345829.

system: NCI60 tumor cell line panel; test: NCI60 one-dose screen (10 μM), mean growth; format: cell-based, human; conditions: Homo sapiens, 48 h, one dose 10 μM; mean cell growth of 60 tumor cell lines
experimental readout: activity at 10 µM (%)
Report as a plain number; the unit % is understood.

Query string: Specify reported activity at 10 µM for the compound shown: COC(=O)c1c2c(c(C)[n+]([O-])c1C)C(=O)C(NCc1cccc(Cl)c1)=CC2=O
Result string: 12

Query string: Specify reported activity at 10 µM for the compound shown: COC(=O)c1c2c(c[n+]([O-])c1C)C(=O)C=CC2=O
Result string: 44.5

Query string: Specify reported activity at 10 µM for the compound shown: COC(=O)c1c2c(c(C)[n+]([O-])c1C)C(=O)C(NCc1ccc(Br)cc1)=CC2=O
Result string: 18

Query string: Specify reported activity at 10 µM for the compound shown: COC(=O)c1c2c(c(C)[n+]([O-])c1C)C(=O)C=C(NCc1ccc(Cl)cc1)C2=O
Result string: -32

Query string: Specify reported activity at 10 µM for the compound shown: COC(=O)c1c2c(c(C)[n+]([O-])c1C)C(=O)C(NCc1ccc(OC)cc1)=CC2=O
Result string: 19

Query string: Specify reported activity at 10 µM for the compound shown: COC(=O)c1c2c(c(C)[n+]([O-])c1C)C(=O)C=C(NCc1cccc(Cl)c1)C2=O
Result string: -42

Query string: Specify reported activity at 10 µM for the compound shown: COC(=O)c1c2c(c(C)[n+]([O-])c1C)C(=O)C(NCc1ccc(Cl)cc1)=CC2=O
Result string: 57

Query string: Specify reported activity at 10 µM for the compound shown: COC(=O)c1c2c(c[n+]([O-])c1C)C(=O)C(NCc1ccccc1)=CC2=O
Result string: -35.1

Query string: Specify reported activity at 10 µM for the compound shown: COC(=O)c1c2c(c(C)[n+]([O-])c1C)C(=O)C=C(NCc1ccc(Br)cc1)C2=O
Result string: -50

Query string: Specify reported activity at 10 µM for the compound shown: COC(=O)c1c2c(c(C)[n+]([O-])c1C)C(=O)C(NCc1ccc(F)cc1)=CC2=O
Result string: 18

Query string: Specify reported activity at 10 µM for the compound shown: COC(=O)c1c2c(c(C)[n+]([O-])c1C)C(=O)C(NCc1ccc(F)c(Cl)c1)=CC2=O
Result string: 4

Query string: Specify reported activity at 10 µM for the compound shown: COC(=O)c1c2c(c(C)[n+]([O-])c1C)C(=O)C=C(NCc1ccc(F)c(Cl)c1)C2=O
Result string: -47

Query string: Specify reported activity at 10 µM for the compound shown: COC(=O)c1c2c(c(C)[n+]([O-])c1C)C(=O)C=C(NCc1ccc(OC)cc1)C2=O
Result string: -34

Query string: Specify reported activity at 10 µM for the compound shown: COC(=O)c1c2c(c(C)[n+]([O-])c1C)C(=O)C(NCc1ccc(O)cc1)=CC2=O
Result string: -21

Query string: Specify reported activity at 10 µM for the compound shown: COC(=O)c1c2c(c(C)[n+]([O-])c1C)C(=O)C=C(NCc1ccc(F)c(F)c1)C2=O
Result string: -49

Query string: Specify reported activity at 10 µM for the compound shown: COC(=O)c1c2c(c(C)[n+]([O-])c1C)C(=O)C=C(NCc1cccc(OC)c1)C2=O
Result string: -52

Query string: Specify reported activity at 10 µM for the compound shown: COC(=O)c1c2c(c(C)[n+]([O-])c1C)C(=O)C=C(NCc1ccc(F)cc1)C2=O
Result string: -37

Query string: Specify reported activity at 10 µM for the compound shown: COC(=O)c1c2c(c(C)[n+]([O-])c1C)C(=O)C(NCc1ccc(F)c(F)c1)=CC2=O
Result string: 11

Query string: Specify reported activity at 10 µM for the compound shown: COC(=O)c1c2c(c(C)[n+]([O-])c1C)C(=O)C(NCc1cccc(OC)c1)=CC2=O
Result string: 23
